EXPERIMENT: amyloid nucleation score (Sup35N fusion, yeast selection) (log enrichment); library NNK3; higher = more nucleation; inactive = no reads after selection;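 also: zero at mode of non-aggregating sequences after 7 days selection at 30°C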
RECORDED ENDPOINT: amyloid nucleation score

Sample records with amyloid nucleation score:
>>> df
       sequence_content         recorded_endpoint  reported_value
0  WLLEKYKLCMGWFFYSDFLT  amyloid nucleation score        inactive
1  DFTDYMPIMYTLHRVVIQMY  amyloid nucleation score        inactive
2  ICILADEYLMCGYGYFHFDY  amyloid nucleation score        inactive
3             FSSYTWNPL  amyloid nucleation score        inactive
4     IFYVWQLLYYGEQRGGS  amyloid nucleation score            1.63

INPUT: Given LKDWVRYGVEIQAVSMGILV , state its recorded amyloid nucleation score.
OUTPUT: 0.221

INPUT: Given FCSLIKYSQNYYNPLAHTVL , state its recorded amyloid nucleation score.
OUTPUT: inactive

INPUT: Given WGVSLLVFHVTKQVRNRFYY , state its recorded amyloid nucleation score.
OUTPUT: inactive

INPUT: Given GAVLLSGEEL , state its recorded amyloid nucleation score.
OUTPUT: 0.871

INPUT: Given MSFTMMCMSFCSSILRYNLS , state its recorded amyloid nucleation score.
OUTPUT: inactive

INPUT: Given DQHFCKSEREGTRYWLRLTI , state its recorded amyloid nucleation score.
OUTPUT: inactive

INPUT: Given PLGDARLTSRRDPPYRTTPL , state its recorded amyloid nucleation score.
OUTPUT: 0.979
